# Test system: S. pyogenes
# Assay type: cell-based
# RUN_PARAMETERS: strain 237 Macrolide-R [L4 mutation]; 8 × MIC
Recorded single step mutation frequency values for a group of compounds are listed next.

Take a look at these entries with their results.
{"COMPOUND": "CC[C@H]1OC(=O)[C@H](C)[C@@H](O[C@H]2C[C@@](C)(OC)[C@@H](O)[C@H](C)O2)[C@H](C)[C@@H](O[C@@H]2O[C@H](C)C[C@H](N(C)C)[C@H]2O)[C@](C)(OC)C[C@@H](C)C(=O)[C@H](C)[C@@H](O)[C@]1(C)O [CLR, clarithromycin]", "OBSERVATION_TYPE": "single step mutation frequency", "MEAS_VALUE": "<3.3 × 10^−10"}
{"COMPOUND": "CCC[C@@H]1C[C@@H](C(=O)N[C@@H]([C@H]2O[C@H](SC)[C@H](O)[C@@H](O)[C@H]2O)[C@H](C)Cl)N(C)C1 [CLN, clindamycin]", "OBSERVATION_TYPE": "single step mutation frequency", "MEAS_VALUE": "<1.0 × 10^−10"}

Please give the documented single step mutation frequency of CC[C@H]1OC(=O)[C@H](C)C(=O)[C@H](C)[C@@H](O[C@@H]2O[C@H](C)C[C@H](N(C)C)[C@H]2O)[C@](C)(OC)C[C@@H](C)C(=O)[C@H](C)[C@H]2N(CCCCn3cnc(-c4cccnc4)c3)C(=O)O[C@]12C [TEL, telithromycin]
<2.0 × 10^−10

Please give the documented single step mutation frequency of CC[C@H]1OC(=O)[C@@](C)(F)C(=O)[C@H](C)[C@@H](OC2OC(C)CC(N(C)C)C2O)[C@@](C)(OC)C[C@@H](C)C(=O)[C@H](C)[C@H]2N(CCCCn3cc(-c4cccc(N)c4)nn3)C(=O)O[C@]12C (stereo partly shown) [CEM-101]
<1.3 × 10^−10
